Reference source: patent US7166738B2

PARAMETER: melting point

Solved entries:
CPD_SMILES: Cc1cc(CC(=O)Nc2ccc(S(N)(=O)=O)cc2)cc(Oc2cc(Cl)cc(C#N)c2)c1
PARAMETER: melting point
VAL: 183.9 to 185.2 °C
--
CPD_SMILES: Cl.N#Cc1cc(Cl)cc(Oc2c(Cl)ccc(CC(=O)Nc3ccc(S(=O)(=O)NC(=O)CCN)cc3Cl)c2F)c1
PARAMETER: melting point
VAL: 199.3 to 199.6 °C
--
CPD_SMILES: Cc1cc(S(N)(=O)=O)ccc1NC(=O)Cc1ccc(C)c(Oc2cc(Cl)cc(C#N)c2)c1
PARAMETER: melting point
VAL: 192.8 to 194.1 °C
--
CPD_SMILES: NS(=O)(=O)c1ccc(NC(=O)Cc2ccc(Cl)c(Oc3cc(Cl)cc(Cl)c3Cl)c2F)cc1
PARAMETER: melting point
VAL: 247 to 249 °C
--
CPD_SMILES: N#Cc1cc(C#N)cc(Oc2c(Cl)ccc(CC(=O)Nc3ccc(S(N)(=O)=O)cc3)c2F)c1
PARAMETER: melting point
VAL: 135.7 to 138.1 °C
--
CPD_SMILES: Cc1cc(OCC[C@@H](O)CO)ccc1NC(=O)Cc1ccc(C)c(Oc2cc(Cl)cc(C#N)c2)c1
PARAMETER: melting point
VAL: 104.9 to 106.4 °C
--
CPD_SMILES: CCc1ccc(CC(=O)Nc2ccc(S(N)(=O)=O)cc2C)cc1Oc1cc(Br)cc(F)c1Cl
PARAMETER: melting point
VAL: 207 to 209.9 °C
--
CPD_SMILES: Cc1ccc(CC(=O)Nc2ccccc2Cl)cc1Oc1cc(C#N)cc(C#N)c1
PARAMETER: melting point
VAL: 175.1 to 177.5 °C
--
CPD_SMILES: CC(F)(F)c1cc(C#N)cc(Oc2c(Cl)ccc(CC(=O)Nc3ccc(S(N)(=O)=O)cc3)c2F)c1
PARAMETER: melting point
VAL: 207 to 209.8 °C
--
CPD_SMILES: CNS(=O)(=O)c1ccc(NC(=O)Cc2ccc(Cl)c(Oc3cc(Cl)cc(C#N)c3)c2F)c(Cl)c1
PARAMETER: melting point
VAL: 199.1 to 200 °C

The value of melting point measured for the compound `CCCC(=O)N(C)S(=O)(=O)c1ccc(NC(=O)Cc2ccc(Cl)c(Oc3cc(Cl)cc(C#N)c3)c2F)c(Cl)c1` turned out to be 186.9 to 187.6 °C

The value of melting point measured for the compound `COc1cc(CC(=O)Nc2ccc(S(N)(=O)=O)cc2Cl)cc(Oc2cc(Cl)cc(C#N)c2)c1` turned out to be 159 to 161.1 °C

The value of melting point measured for the compound `N#Cc1cc(Oc2c(Cl)ccc(CC(=O)Nc3ccccc3Cl)c2F)cc(C(F)F)c1` turned out to be 169.5 to 171 °C

The value of melting point measured for the compound `Cc1ccc(CC(=O)Nc2ccc(S(N)(=O)=O)cc2Cl)c(F)c1Oc1cc(Cl)cc(C#N)c1` turned out to be 228.9 to 230.6 °C

The value of melting point measured for the compound `CCCCC(=O)NS(=O)(=O)c1ccc(NC(=O)Cc2ccc(Cl)c(Oc3cc(Cl)cc(C#N)c3)c2F)c(Cl)c1.[Na]` turned out to be 157.6 to 159.2 °C
